Protein target, amino acids: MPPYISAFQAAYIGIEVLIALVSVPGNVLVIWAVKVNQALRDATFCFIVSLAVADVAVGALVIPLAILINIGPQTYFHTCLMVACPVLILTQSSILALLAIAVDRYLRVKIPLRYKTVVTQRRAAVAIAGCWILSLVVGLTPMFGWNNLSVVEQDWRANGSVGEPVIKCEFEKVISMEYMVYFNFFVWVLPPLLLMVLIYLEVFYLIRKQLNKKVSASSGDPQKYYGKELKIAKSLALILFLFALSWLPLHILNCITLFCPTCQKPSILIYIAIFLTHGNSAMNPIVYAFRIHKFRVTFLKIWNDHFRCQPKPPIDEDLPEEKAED
pKi: −log10 of the molar value.
Param threshold (7) applies to pKi; output T when value >= threshold, F when value < threshold.

Nc1nc(-c2cccc(C(=O)N3CCN(Cc4ccccc4)CC3)c2)cn2nc(-c3ccco3)nc12 :: F
Nc1nc(C(=O)NCCc2ccc(O)cc2)cn2nc(-c3ccco3)nc12 :: F
Nc1nc(-c2ccc(C(=O)NCCCn3ccnc3)cc2)cn2nc(-c3ccco3)nc12 :: F

Decide: is the reported value of pKi for "Nc1nc(-c2cccc(C(=O)N3CCN(c4ccncc4)CC3)c2)cn2nc(-c3ccco3)nc12" equal to or greater than 7?
T

Check if pKi >= 7 (inclusive). Item: "Nc1nc(C(=O)N2CCN(c3ccncc3)CC2)cn2nc(-c3ccco3)nc12"
F

Would you say "Nc1nc(-c2ccc(C(=O)N3CCOCC3)cc2)cn2nc(-c3ccco3)nc12" shows pKi at minimum 7?
F

----------
# system: UniProt:P30543
# Sequence (P30543 whole entry): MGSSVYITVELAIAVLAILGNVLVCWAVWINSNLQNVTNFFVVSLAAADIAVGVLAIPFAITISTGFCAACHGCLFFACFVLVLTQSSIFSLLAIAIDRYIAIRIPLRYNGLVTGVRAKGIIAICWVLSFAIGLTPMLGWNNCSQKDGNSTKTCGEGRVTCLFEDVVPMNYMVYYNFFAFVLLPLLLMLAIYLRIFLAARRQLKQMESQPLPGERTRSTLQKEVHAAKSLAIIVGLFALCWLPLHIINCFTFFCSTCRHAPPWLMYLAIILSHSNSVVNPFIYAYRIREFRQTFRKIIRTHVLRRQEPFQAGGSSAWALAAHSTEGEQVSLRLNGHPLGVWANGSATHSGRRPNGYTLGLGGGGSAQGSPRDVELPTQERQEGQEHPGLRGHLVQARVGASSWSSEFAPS
Mark each entry satisfied if its Ki sits below 0.2 µM, and not satisfied for all others.

# example entries with known answers
N#Cc1cccc(-c2cn3nc(-c4ccco4)nc3c(N)n2)c1 :: satisfied
CC(=O)Nc1cccc(-c2cn3nc(-c4ccco4)nc3c(N)n2)c1 :: satisfied
CCOC(=O)c1cccc(-c2cn3nc(-c4ccco4)nc3c(N)n2)c1 :: not satisfied
CCN(CC)C(=O)c1cccc(-c2cn3nc(-c4ccco4)nc3c(N)n2)c1 :: satisfied
Nc1nc(-c2cccc3ccccc23)cn2nc(-c3ccco3)nc12 :: not satisfied
Nc1nc(-c2ccc([N+](=O)[O-])cc2)cn2nc(-c3ccco3)nc12 :: not satisfied
Nc1nc(-c2cccc(CO)c2)cn2nc(-c3ccco3)nc12 :: not satisfied
CCOC(=O)c1ccc(-c2cn3nc(-c4ccco4)nc3c(N)n2)cc1 :: not satisfied
Nc1nc(-c2cncnc2)cn2nc(-c3ccco3)nc12 :: not satisfied
Nc1nc(-c2ccc(CO)cc2)cn2nc(-c3ccco3)nc12 :: not satisfied

Hello, is Ki of the following molecule strictly smaller than 0.2 µM? "Nc1nc(C(=O)NCCCc2ccccc2)cn2nc(-c3ccco3)nc12"
satisfied

I'd appreciate it if you could check whether "Nc1nc(-c2cccc(C(=O)NCCc3ccc(O)cc3)c2)cn2nc(-c3ccco3)nc12" has Ki smaller than 0.2 µM.
satisfied

----------
Reported Ki for target or system Adenosine receptor A1 (Rattus norvegicus), by entry.
Provide the reading as a plain figure in nM.

Completed entries (count: 3):
Nc1nc(-c2ccc(C(=O)NCCc3ccc(O)cc3)cc2)cn2nc(-c3ccco3)nc12 :: 36
CC(C)NC(=O)c1cccc(-c2cn3nc(-c4ccco4)nc3c(N)n2)c1 :: 290
CCN(CC)C(=O)c1cccc(-c2cn3nc(-c4ccco4)nc3c(N)n2)c1 :: 41

Let's switch to this compound now.
# value lookup — system Adenosine receptor A1 (Rattus norvegicus), readout Ki, item "Nc1nc(C(=O)NCc2ccccc2)cn2nc(-c3ccco3)nc12"
14
